Biological target: T1, Gal4 transcriptional activation domain (AD) fused in frame with AR (yeast, UniProt P10275 1-920, limits assumed)
T1 sequence (looked up): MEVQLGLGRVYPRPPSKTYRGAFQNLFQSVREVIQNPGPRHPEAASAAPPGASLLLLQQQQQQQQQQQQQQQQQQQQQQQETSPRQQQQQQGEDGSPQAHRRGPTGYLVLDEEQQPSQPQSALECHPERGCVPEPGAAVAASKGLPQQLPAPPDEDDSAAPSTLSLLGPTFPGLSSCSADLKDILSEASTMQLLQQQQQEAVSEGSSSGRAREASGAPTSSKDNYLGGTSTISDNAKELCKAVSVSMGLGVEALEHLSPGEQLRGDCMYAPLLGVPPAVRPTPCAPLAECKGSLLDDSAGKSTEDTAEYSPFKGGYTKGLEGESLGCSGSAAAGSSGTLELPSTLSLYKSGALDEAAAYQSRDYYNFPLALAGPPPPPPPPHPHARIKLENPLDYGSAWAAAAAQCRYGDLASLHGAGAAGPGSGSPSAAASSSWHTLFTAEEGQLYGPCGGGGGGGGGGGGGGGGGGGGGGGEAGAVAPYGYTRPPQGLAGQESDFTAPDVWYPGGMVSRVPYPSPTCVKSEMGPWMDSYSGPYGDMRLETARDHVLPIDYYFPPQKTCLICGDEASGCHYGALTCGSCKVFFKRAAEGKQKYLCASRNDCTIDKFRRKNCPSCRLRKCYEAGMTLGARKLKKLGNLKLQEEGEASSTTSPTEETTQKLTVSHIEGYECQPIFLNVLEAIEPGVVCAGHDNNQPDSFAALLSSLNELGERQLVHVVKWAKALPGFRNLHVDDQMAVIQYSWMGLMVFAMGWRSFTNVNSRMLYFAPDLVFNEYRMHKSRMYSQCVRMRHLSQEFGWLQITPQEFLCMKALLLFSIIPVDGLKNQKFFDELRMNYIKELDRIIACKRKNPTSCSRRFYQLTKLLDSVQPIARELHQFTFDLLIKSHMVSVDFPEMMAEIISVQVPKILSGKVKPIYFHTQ
Test: cell-based or functional assay
Listed here are binders together with their documented Fold induction (yeast two-hybrid).
experimental.readout: Fold induction (yeast two-hybrid) (fold)

* M2H3 (peptide) MKLLSSIEQACDICRLKKLKCSKEKPKCAKCLKNNWECRYSPKTKRSPLTRAHLTEVESRLERLEQLFLLIFPREDLDMILKMDSLQDIKALLTGLFVQDNVNKDAVTDRLASVETDMPLTLRQHRISATSSSEESSNKGQRQLTVSEFRQSFVSEILGGGWLPLDLQPS | 10
* B8A10 (peptide) MKLLSSIEQACDICRLKKLKCSKEKPKCAKCLKNNWECRYSPKTKRSPLTRAHLTEVESRLERLEQLFLLIFPREDLDMILKMDSLQDIKALLTGLFVQDNVNKDAVTDRLASVETDMPLTLRQHRISATSSSEESSNKGQRQLTVSEFVNWDAVVPWSELVALLDLQPS | 1
* B22F6 (peptide) MKLLSSIEQACDICRLKKLKCSKEKPKCAKCLKNNWECRYSPKTKRSPLTRAHLTEVESRLERLEQLFLLIFPREDLDMILKMDSLQDIKALLTGLFVQDNVNKDAVTDRLASVETDMPLTLRQHRISATSSSEESSNKGQRQLTVSEFLSGLEMEVVLWHYGRLDLQPS | 10
* B18C4 (peptide) MKLLSSIEQACDICRLKKLKCSKEKPKCAKCLKNNWECRYSPKTKRSPLTRAHLTEVESRLERLEQLFLLIFPREDLDMILKMDSLQDIKALLTGLFVQDNVNKDAVTDRLASVETDMPLTLRQHRISATSSSEESSNKGQRQLTVSEFDSPWVWFGGEPGLNLLDLQPS | 1
